Attribution: PubChem BioAssay (NCI)

System: 786-0 renal
ASSAY_SUMMARY: NCI tumour cell line growth inhibition, 48 h
READOUT_LABEL: TGI

CCN(CC)CCO/N=C1\CC[C@H]2[C@@H]3CCc4cc(OC)ccc4[C@H]3CC[C@]12C | 3.27 µM
Clc1ccc2c(c1)N(c1ncnc3ccc(-c4cnc5[nH]ncc5c4)cc13)CC2 | > 100 µM
CCOC(=O)C1CCC(=O)N1C(=O)c1ccccc1Cl (stereo not given) | > 100 µM
C/C(=N\Nc1nc2ccccc2s1)c1ccc2ccccc2n1 | > 100 µM

# ---- query compound ----
Fill in TGI for record Cc1cccc(C)c1N1C(=O)C(=O)C(c2nc3ccccc3s2)C(=Nc2cccc3c(=O)[nH][nH]c(=O)c23)C1=O (stereo not given)
> 100 µM

---

Tested on: HOP-62 NSCLC
ASSAY_SUMMARY: NCI tumour cell line growth inhibition, 48 h
Could you please report measured TGI for the items listed next?

Here's what some known entries look like.
Fc1ccc2nc(-c3cc(-c4ccc5c(c4)OCO5)n[nH]3)[nH]c2c1 | > 43.4 µM
Cc1ccc(NC(=O)/C(Cc2cc(=O)oc3cc(O)ccc23)=N\NC(=O)C[N+](C)(C)C)cc1C | > 100 µM

Please go through the list and note TGI for each compound.
1. O=[N+]([O-])c1ccc(-c2cc3c(Nc4ccc(Cl)c(C(F)(F)F)c4)ncnc3s2)cc1
2. COc1ccc(-c2c(C3=NCCCN3)nnn2-c2ccc([N+](=O)[O-])cc2)cc1

> 100 µM
> 100 µM

Fill in TGI for record `CCCCCCCCCCCCCC[n+]1cccc(C(N)=O)c1`
3.41 µM

---

Test system: SR leukemia
ASSAY_SUMMARY: NCI tumour cell line growth inhibition, 48 h
READOUT_LABEL: TGI

Here's what some known entries look like.
O=C(CC(C(=O)c1ccco1)c1ccco1)c1ccco1 (stereo not given) | > 100 µM
Cc1ccccc1/C=C/C(=O)c1ccccc1 | > 100 µM
CCN(CC)CCO/N=C1\CC[C@H]2[C@@H]3CCc4cc(OC)ccc4[C@H]3CC[C@]12C | 4.31 µM
CCOC(=O)NC(Nc1c(F)c(F)c(F)c(F)c1F)(C(F)(F)F)C(F)(F)F | > 100 µM

# ---- query compound ----
Fill in TGI for record `Cc1cc(C)c(/C=C(\C(=C/c2c(C)cc(C)cc2C)[N+](=O)[O-])[N+](=O)[O-])c(C)c1`
> 100 µM

---

Test system: SF-539 CNS
ASSAY_SUMMARY: NCI tumour cell line growth inhibition, 48 h
Could you please report measured TGI for the items listed next?

C=C1C(=O)C23C(O)CC4C5(C)CCCC4(C(O)OC5)C2C(OC(C)=O)CC1C3O (stereo unspecified) | 25.8 µM
COc1ccc(Oc2cnn(C(Br)(Br)C(C)=O)c(=O)c2Br)cc1 | 25.4 µM
O=c1c2ccccc2sc2ccccc12 | > 100 µM
CC(C)(C)c1ccc(OC2CCO2)cc1 (stereo unspecified) | 98.6 µM
O=[N+]([O-])c1ccc2c(c1)c(N=NC(=S)Nc1ccc(Cl)cc1)c(O)n2CN1CCOCC1 | 26.4 µM

Fill in TGI for record `Nc1nc(Nc2ccccc2)sc1C(=O)c1ccco1`
33.3 µM

---

Test system: NCI-H460 lung
ASSAY_SUMMARY: NCI tumour cell line growth inhibition, 48 h
READOUT_LABEL: TGI (µM)
Numbers only, in µM.

CCN(CCCl)c1cc(CN(C)C)cc(NC(=O)c2ccc(C(=O)Nc3cccc(CN(C)C)c3)cc2)c1 | 10.6

Write TGI of `C=CC1=C(C)C2=NC1=CC1=NC(=CC3=C(C)C4=C(O)[C@H](C(=O)OC)C(=C5NC(=C2)[C@@H](C)[C@@H]5CCC(=O)O)C4=N3)C(CC)=C1C` ; system used: NCI-H460 lung
13.8
